# System: A549
# EXPERIMENT NOTES: Cytotoxicity against human A549 cells assessed as growth inhibition at 10 uM after 72 hrs by MTT based WST-8 assay
# Assay type: functional
# APPLIED CONDITIONS: A549, 72 h, read-out: GI
READOUT: inhibition of growth at 10 µM (%)

[[record]]
structure_string = "O=C(Nc1ccc(Oc2ccc(-c3ncc[nH]3)cc2)cc1)Nc1ccc(F)c(Cl)c1"
unit_tag = "%"
measured = 14.6

[[record]]
structure_string = "O=C(Nc1ccc(Oc2ccc(-c3nccs3)cc2)cc1)Nc1ccc(Cl)c(C(F)(F)F)c1"
unit_tag = "%"
measured = 77.6

[[record]]
structure_string = "O=C(Nc1ccc(Oc2ccc(-c3ncc[nH]3)cc2)cc1)Nc1ccc(Cl)c(C(F)(F)F)c1"
unit_tag = "%"
measured = 67.9

[[record]]
structure_string = "O=C(Nc1ccc(Oc2ccc(-c3nccs3)cc2)cc1)Nc1ccc(Cl)c([N+](=O)[O-])c1"
unit_tag = "%"
measured = 77.1

[[record]]
structure_string = "O=C(Nc1ccc(Cl)cc1)Nc1ccc(Oc2ccc(-c3nccs3)cc2)cc1"
unit_tag = "%"
measured = 17.7

[[record]]
structure_string = "O=C(Nc1ccc(Oc2ccc(-c3nccs3)cc2)cc1)Nc1cccc(C(F)(F)F)c1"
unit_tag = "%"
measured = 71.5

[[record]]
structure_string = "O=C(Nc1ccc(Oc2ccc(-c3nccs3)cc2)cc1)Nc1ccc(F)c(C(F)(F)F)c1"
unit_tag = "%"
measured = 76.4

[[record]]
structure_string = "O=C(Nc1ccc(Oc2ccc(-c3nccs3)cc2)cc1)Nc1cc(C(F)(F)F)ccc1Cl"
unit_tag = "%"
measured = 75.5

[[record]]
structure_string = "CNC(=O)c1cc(Oc2ccc(NC(=O)Nc3ccc(Cl)c(C(F)(F)F)c3)cc2)ccn1"
unit_tag = "%"
measured = 81.2

[[record]]
structure_string = "O=C(Nc1ccc(Oc2ccc(-c3ncc[nH]3)cc2)cc1)Nc1cc(C(F)(F)F)ccc1Cl"
unit_tag = "%"
measured = 22.3

[[record]]
structure_string = "O=C(Nc1ccc(Cl)cc1)Nc1ccc(Oc2ccc(-c3ncc[nH]3)cc2)cc1"
unit_tag = "%"
measured = 8.86

[[record]]
structure_string = "O=C(Nc1ccc(Oc2ccc(-c3ncc[nH]3)cc2)cc1)Nc1cccc(C(F)(F)F)c1"
unit_tag = "%"
measured = 30

[[record]]
structure_string = "COC(=O)c1sccc1NC(=O)Nc1ccc(Oc2ccc(-c3nccs3)cc2)cc1"
unit_tag = "%"
measured = 6.78


Data origin, for the record: ChEMBL document CHEMBL1165866
